Data credit: PubChem BioAssay (NCI)

- Test system: SK-MEL-28 melanoma
- procedure.text: NCI tumour cell line growth inhibition, 48 h

- item.smiles: "O=c1[nH]cnc2c1nnn2CCCCCCCCCCCCn1nnc2c(=O)[nH]cnc21"
  unit.abbrev: "µM"
  comparison.symbol: ">"
  TGI: 100
- item.smiles: "CC1=C(C(=O)Nc2ccc(Cl)c(C(=O)OC(C)C)c2)SCCO1"
  unit.abbrev: "µM"
  comparison.symbol: "="
  TGI: 99.5
- item.smiles: "CN(CCCNC(=O)CCOCCOCCOCCNC(=O)Cc1ccc2ccc3cccc4ccc1c2c34)CCCNc1cc(-c2ccc3ccccc3c2)nc2ccccc12"
  unit.abbrev: "µM"
  comparison.symbol: "="
  TGI: 0.347

---

- Test system: HCT-116 colon
- procedure.text: NCI tumour cell line growth inhibition, 48 h

- compound: "C#CCOc1ccc2ncnc(Nc3ccc(NC(=O)C=C)cc3)c2c1"
  TGI: "35.9 µM"
- compound: "O=C(NNc1ccccc1)/C(=C/c1ccc2c(c1)OCO2)NC(=O)c1ccccc1"
  TGI: "> 100 µM"
- compound: "C(=C\\N1CCCCC1)/c1nnnn1-c1ccccc1"
  TGI: "> 100 µM"
- compound: "CC(=O)OC1COC(n2c(=S)n(-c3ccccc3)c(=O)c3ccccc32)C(OC(C)=O)C1OC(C)=O (stereo not given)"
  TGI: "> 100 µM"
- compound: "C[C@H]1S[C@H](c2c(Cl)cccc2Cl)N2Cc3ccccc3N=C12"
  TGI: "16.3 µM"

---

- Tested on: HCC-2998 colon
- procedure.text: NCI tumour cell line growth inhibition, 48 h
# TGI per record follows
measure: TGI (µM)

- compound: "CC(=O)Oc1ccc(/C=C/C(=O)O[C@@H](C(=O)O)[C@@H](OC(=O)/C=C/c2ccc(OC(C)=O)c(OC(C)=O)c2)C(=O)O)cc1OC(C)=O"
  test.system: "HCC-2998 colon"
  unit.abbrev: "µM"
  comparison.symbol: ">"
  measurement: 100
- compound: "Brc1ccc2ns[s+]c2c1"
  test.system: "HCC-2998 colon"
  unit.abbrev: "µM"
  comparison.symbol: "="
  measurement: 25.8
- compound: "C/C1=C\\C=C(\\C(C)C)CC/C(C(=O)O)=C\\CC/C(C)=C/CC1"
  test.system: "HCC-2998 colon"
  unit.abbrev: "µM"
  comparison.symbol: "="
  measurement: 33.8
- compound: "O=C(COc1cccc(/C=C2\\CSc3ccccc3C2=O)c1)Nc1nccs1"
  test.system: "HCC-2998 colon"
  unit.abbrev: "µM"
  comparison.symbol: "="
  measurement: 3.13
- compound: "COc1ccc2c(OCc3nnc4ccc(-c5ccccc5)nn34)ccnc2c1"
  test.system: "HCC-2998 colon"
  unit.abbrev: "µM"
  comparison.symbol: ">"
  measurement: 100
- compound: "Fc1cccc(F)c1C1SCc2nc3ccc(Cl)cc3n21 (stereo not given)"
  test.system: "HCC-2998 colon"
  unit.abbrev: "µM"
  comparison.symbol: ">"
  measurement: 100
- compound: "O=[N+]([O-])c1cccc(C2CC(c3ccccc3)=Nc3ccccc3S2)c1 (stereo not given)"
  test.system: "HCC-2998 colon"
  unit.abbrev: "µM"
  comparison.symbol: "="
  measurement: 31
- compound: "CCN(CC)c1ccc(/C=C/C=C2C(=O)NC(=S)NC2=O)cc1"
  test.system: "HCC-2998 colon"
  unit.abbrev: "µM"
  comparison.symbol: ">"
  measurement: 100
- compound: "O=C1/C=C/[C@@H](O)[C@@H]2C[C@@H](O)C[C@H]2/C=C/CCC[C@H](C(F)(F)F)O1"
  test.system: "HCC-2998 colon"
  unit.abbrev: "µM"
  comparison.symbol: "="
  measurement: 9.2
- compound: "CN1CSC(=S)N(Cc2ccccc2)C1"
  test.system: "HCC-2998 colon"
  unit.abbrev: "µM"
  comparison.symbol: ">"
  measurement: 100

---

# TGI per record follows
- System: MOLT-4 leukemia
- procedure.text: NCI tumour cell line growth inhibition, 48 h

- item.smiles: "Cc1nc2ccccc2c(/C=C/c2ccc(Cl)cc2)c1C(=O)/C=C/c1ccc(Cl)cc1"
  TGI: "> 100 µM"
- item.smiles: "O=C(CC(Cl)=C(Cl)Cl)c1cccc(Cl)c1Cl"
  TGI: "> 100 µM"
- item.smiles: "COc1cccc(-c2cc(=O)c3ccccc3[nH]2)c1"
  TGI: "> 100 µM"
- item.smiles: "O=C(Nc1nc2ccccc2s1)Nc1ccc([N+](=O)[O-])cc1Cl"
  TGI: "> 47.4 µM"
- item.smiles: "Oc1[nH]c2ccccc2c1/C=c1/cc2c(c(-c3ccc(F)cc3)n1)=Nc1ccccc1-2"
  TGI: "5.41 µM"

---

- System: CCRF-CEM leukemia
- procedure.text: NCI tumour cell line growth inhibition, 48 h
# TGI per record follows

- compound: "O=C(Nc1ccccc1)c1cc(S(=O)(=O)N2CCNNC2=O)c(S)cc1Cl"
  TGI: "> 100 µM"
- compound: "Cn1cc(C2=C(c3cn(CCCCCSC(=N)N)c4ccccc34)C(=O)NC2=O)c2ccccc21"
  TGI: "5.87 µM"
- compound: "N#C[C@H](c1nc2ccccc2s1)c1nc2ccccc2nc1Cl"
  TGI: "> 100 µM"
- compound: "COc1ccc(/C=N/n2cnc3[nH]c(C)c(Cc4ccccc4)c3c2=N)cc1"
  TGI: "> 100 µM"
- compound: "c1cc2c(cn1)Nc1ccncc1S2"
  TGI: "> 100 µM"
- compound: "C[Si](C)(C)C1=C([Si](C)(C)C)C(Cl)(Cl)C1=O"
  TGI: "1.42 µM"
- compound: "O=C(CCc1ccccc1)ON1C(=S)C(c2ccccc2)(c2ccccc2)N=C1Sc1ccccc1"
  TGI: "> 100 µM"
- compound: "C=CCOCn1cc(C)c(=O)[nH]c1=O"
  TGI: "> 100 µM"
- compound: "Cc1nc2ccccc2c(/C=C/c2ccc(Cl)cc2)c1C(=O)/C=C/c1ccc(Cl)cc1"
  TGI: "> 100 µM"
- compound: "COc1cc(-c2nn(-c3cccc(NC(=O)c4ccc(Cl)c(C(F)(F)F)c4)c3)cc2-c2ccncc2)ccc1Cl"
  TGI: "> 32.5 µM"
- compound: "COc1cc(CCc2ccc(N)cc2)cc(OC)c1OC"
  TGI: "> 100 µM"
- compound: "O=C1C(CN2CCOCC2)CCCC1CN1CCOCC1 (stereo unspecified)"
  TGI: "4.03 µM"
- compound: "CC(=O)NC(CC(C)C)C(=O)NC(Cc1ccccc1)C(=S)N1CCCC1 (stereo unspecified)"
  TGI: "> 100 µM"
- compound: "O=C(COc1cccc(/C=C2\\CSc3ccccc3C2=O)c1)Nc1nccs1"
  TGI: "4.06 µM"
- compound: "N#CC1c2ccccc2C=CN1C(=O)N(c1ccccc1)c1ccccc1 (stereo unspecified)"
  TGI: "8.99 µM"
- compound: "CN(C)CCNC(=O)c1cccc2c1Oc1c(cccc1[N+](=O)[O-])O2"
  TGI: "16.4 µM"
- compound: "CSc1c(C(=O)Nc2ccc(Cl)cc2)c(N)n(N)c(=O)c1C#N"
  TGI: "> 100 µM"
- compound: "CN(C)C(=S)SCC(=O)Nc1ccccc1"
  TGI: "> 100 µM"
- compound: "C[C@]12CCC3[C@@H](CC[C@@H]4c5nonc5CC[C@]34C)C1CC[C@@H]2O (stereo partly specified)"
  TGI: "54.8 µM"
- compound: "C(=C\\N1CCCCC1)/c1nnnn1-c1ccccc1"
  TGI: "61.1 µM"
- compound: "COC(=O)[C@H]1CCCN1C(=O)[C@H]1CCCN1C(=O)[C@H](Cc1c[nH]c2ccccc12)NC(=S)Nc1cc(C(F)(F)F)cc(C(F)(F)F)c1"
  TGI: "> 100 µM"

---

- System: XF 498 CNS
- procedure.text: NCI tumour cell line growth inhibition, 48 h
# TGI per record follows
measure: TGI

- compound: "CC(=O)NNc1nc(C)c(C(=O)NNC(=O)C(=O)Nc2ccc(Cl)cc2Cl)s1"
  measurement: "> 100 µM"
- compound: "CCOc1ccc(NC(=O)CC2C(=O)Nc3ccccc3S2(=O)=O)cc1 (stereo unspecified)"
  measurement: "> 100 µM"
- compound: "COc1cc(CCc2ccc(N)cc2)cc(OC)c1OC"
  measurement: "> 100 µM"
- compound: "COc1cccc(-c2cc(=O)c3ccccc3[nH]2)c1"
  measurement: "72.3 µM"
- compound: "O=C(Nc1nc2c(ncn2C2OC(CO)C(O)C2O)c(=O)[nH]1)c1ccccc1 (stereo unspecified)"
  measurement: "> 100 µM"
- compound: "O=C(NNc1ccccc1)/C(=C/c1ccc2c(c1)OCO2)NC(=O)c1ccccc1"
  measurement: "> 100 µM"

---

- System: SK-MEL-28 melanoma
- procedure.text: NCI tumour cell line growth inhibition, 48 h

- compound: "Cn1cc(C2=C(c3cn(CCCCCSC(=N)N)c4ccccc34)C(=O)NC2=O)c2ccccc21"
  test.system: "SK-MEL-28 melanoma"
  GI50: "3.55 µM"
- compound: "COC(=O)c1ccc(NC(=O)Oc2ccc(N(CCCl)CCCl)cc2)cc1"
  test.system: "SK-MEL-28 melanoma"
  GI50: "30.7 µM"
- compound: "C#CCOc1ccc2ncnc(Nc3ccc(NC(=O)C=C)cc3)c2c1"
  test.system: "SK-MEL-28 melanoma"
  GI50: "23.6 µM"
- compound: "O=C(Nc1nc2ccccc2s1)Nc1ccc([N+](=O)[O-])cc1Cl"
  test.system: "SK-MEL-28 melanoma"
  GI50: "6.25 µM"
- compound: "COc1cc2cc(Oc3ccc(NC(=O)Nc4ccc(Cl)c(Cl)c4)cc3)c(C)nc2cc1OC"
  test.system: "SK-MEL-28 melanoma"
  GI50: "3.77 µM"
- compound: "Cc1cc([N+](=O)[O-])c2ccccc2[n+]1[O-]"
  test.system: "SK-MEL-28 melanoma"
  GI50: "1.61 µM"
- compound: "Oc1[nH]c2ccccc2c1/C=c1/cc2c(c(-c3ccc(F)cc3)n1)=Nc1ccccc1-2"
  test.system: "SK-MEL-28 melanoma"
  GI50: "0.777 µM"
- compound: "O=C1Cc2cc(C(=O)NC3C[C@H]4CC[C@@H](C3)N4S(=O)(=O)CC3CCN(CCCC(F)(F)F)CC3)c(Cl)cc2N1 (some centres undefined)"
  test.system: "SK-MEL-28 melanoma"
  GI50: "> 100 µM"
- compound: "Cn1c(-c2c(N)n(CCCN3CCOCC3)c3nc(C#N)c(C#N)nc23)nc2ccccc21"
  test.system: "SK-MEL-28 melanoma"
  GI50: "3.03 µM"
